target: Respiratory Syncytial Virus fusion glycoprotein (RSV F) on RSV-A2 virus (Respiratory Syncytial Virus subtype A (RSV-A2)); test: cell-based or functional assay
property_label: Neutralization IC50 (RSV subtype A)

Exercise: May I ask what Neutralization IC50 (RSV subtype A) has been recorded for ADI-41213 (antibody, V domains shown) VH: EVQLVESGGGLIQPGGSLRLSCAASGFTVSSNYMSWVRQAAGKGLEWVSLIYSGDSTYYADSVKGRFTISRDNSQNTLYLQMNSLRAEDTAVYYCARDASPNVGYYGMDVWGQGTTVTVSS VL: DIVLTQPPSVSVSPGQTASITCSGGKLGDTYACWYQQKPGQSPVLVIYQDSKRPSGIPERFSGSNSGNTATLTISGTQAMDEADYYCQAWDSSTARYVFGTGTKVTVL ?
Key: > 25 µg/mL

Next, consider the following binder.
Exercise: Name the reported Neutralization IC50 (RSV subtype A) value associated with the binder ADI-41205 (antibody, V domains shown) VH: QVQLQESGPGLVKPSGTLSLTCAVSGGSISSTNWWSWVRQPPGKGLEWIGEIYHSGSTNYNPSLKSRVTISVDKSNNQFSLNLSSVTAADTAVYYCARGVITYRGSWFLQYFDYWGQGTLVTVSS VL: DIRVTQSPDSLAVSLGERATINCKSSQSLFYSSNNQNYLAWYQQKPGQPPKLLIYWASTRQSGVPHRFSGSGSGTDFTLTISSLQAEDVAVYYCQQYYSSPLTFGGGTKVEIK
Key: > 25 µg/mL
